tested on: MDA-MB-435; test: NCI tumour cell line growth inhibition, 48 h
Calls of active or inactive are those of the source. Rule as the data show it: active = GI50 up to about 1.1 µM and inactive = higher.
Pick one and only one: active, inactive

INPUT: Can you look up the reported call for `CCN(CC)C(=S)N/N=C(/c1ccccc1)c1ccccn1` for me?
OUTPUT: active

INPUT: Can you look up the reported call for `O=C(/C=C/c1ccc(Oc2cc(C(=O)/C=C/c3ccc(O)cc3)c(O)cc2O)cc1)c1ccc(O)cc1O` for me?
OUTPUT: inactive

INPUT: Can you look up the reported call for COC(=O)CC1C2CC3C(C2=O)C13 (centres undefined) for me?
OUTPUT: inactive

INPUT: Can you look up the reported call for CC(=O)OC1CC2C(=O)C(=O)C1(C)C2(C)C (centres undefined) for me?
OUTPUT: inactive

INPUT: Can you look up the reported call for `COc1ccc2nc3c(C)cc4ccccc4n3c2c1` for me?
OUTPUT: inactive

INPUT: Can you look up the reported call for COc1ccc2c3c1OC1C(OC)(OC)CC4(C=C2)CN(C)CCC314 (centres undefined) for me?
OUTPUT: inactive

INPUT: Can you look up the reported call for `CCN(CC)CCCNc1ccc2nc(C)n3c4ccc(O)cc4c(=O)c1c23` for me?
OUTPUT: inactive

INPUT: Can you look up the reported call for Oc1ccc2c(c1)OCC1c3ccccc3OC21 (centres undefined) for me?
OUTPUT: inactive

INPUT: Can you look up the reported call for `N=C(N)NCCNC(=N)N` for me?
OUTPUT: inactive

* * *

test system: NCI-H23; test: NCI tumour cell line growth inhibition, 48 h
Activity calls are given as the source filed them. Rule as the data show it: active = GI50 up to about 1.1 µM and inactive = higher.
I'd appreciate it if you could supply GI50 values for the items below.

INPUT: Item under review: CCOC1(OCC)N=C(N)C2(C#N)C3(C(=O)N(C(C)C)N=C3C)C12C#N (centres undefined) . Reported GI50?
OUTPUT: > 100 µM (inactive)

INPUT: Item under review: `C=CC(C)(C)n1cc(C2=C(O)C(=O)C(c3cn(C(C)(C)C=C)c4ccccc34)=C(OC(C)=O)C2=O)c2ccccc21` . Reported GI50?
OUTPUT: 0.692 µM (active)

INPUT: Item under review: `CN[C@@H]1C[C@H]2O[C@@](C)([C@@H]1OC)n1c3ccccc3c3c4c(c5c6ccccc6n2c5c31)C(=O)N[C@@H]4O` . Reported GI50?
OUTPUT: 0.0338 µM (active)

INPUT: Item under review: `O=c1cc(-c2ccc(O)cc2)oc2cc(O)cc(O)c12` . Reported GI50?
OUTPUT: 17.8 µM (inactive)

* * *

system: OVCAR-5; experiment: NCI tumour cell line growth inhibition, 48 h
Active and inactive are the calls of the source. Cut-off read from the data, not from the text of the source: active = GI50 up to about 1.1 µM and inactive = higher.
test_readout: GI50

INPUT: Can you look up GI50 on OVCAR-5 for `C/C=C/[C@@H]1O[C@H](CC#C[Si](C)(C)C)[C@@]2(C=O)C(C)=CC[C@H](C(C)C)[C@@H]12` ?
OUTPUT: 21 µM (inactive)

INPUT: Can you look up GI50 on OVCAR-5 for `Nc1n[nH]c2c1Cc1c(n(Cc3ccc(Cl)cc3)c3ccccc13)C(=O)N2` ?
OUTPUT: 14.2 µM (inactive)

INPUT: Can you look up GI50 on OVCAR-5 for `O=C(CSc1nc2ccccc2c(=O)n1-c1ccccc1)N/N=C1\C(=O)Nc2ccc(Br)cc21` ?
OUTPUT: 2.92 µM (inactive)

INPUT: Can you look up GI50 on OVCAR-5 for O=C(NN1C(=O)CSC1c1ccc(C(F)(F)F)cc1)c1ccncc1 (stereo not given) ?
OUTPUT: > 100 µM (inactive)

INPUT: Can you look up GI50 on OVCAR-5 for `CC(=O)c1ccc2c(c1)oc(=O)n2CCN1CCCCC1` ?
OUTPUT: > 100 µM (inactive)

INPUT: Can you look up GI50 on OVCAR-5 for `CN1C(c2ccccc2)=CC(=O)C(O)=C(c2ccccc2)S1(=O)=O` ?
OUTPUT: > 100 µM (inactive)

INPUT: Can you look up GI50 on OVCAR-5 for `CCOc1ccc(/C=N\N2C(=O)c3ccccc3C2=O)cc1` ?
OUTPUT: > 100 µM (inactive)

INPUT: Can you look up GI50 on OVCAR-5 for `CC(=O)/N=C1\N/C(=C/c2cc([N+](=O)[O-])ccc2O)CN1C` ?
OUTPUT: > 100 µM (inactive)

INPUT: Can you look up GI50 on OVCAR-5 for `Cc1c(C#N)c(N)[nH]c(=S)c1C#N` ?
OUTPUT: > 100 µM (inactive)

INPUT: Can you look up GI50 on OVCAR-5 for Nc1nc(Cl)c(CO)c(NCC2(CO)CC(CCc3ccccc3)C2)n1 (stereo not given) ?
OUTPUT: 29.2 µM (inactive)
